test-summary: Caco-2 permeability assay
Assay type: in vitro ADME
test-conditions: human, Caco-2, pH 7.4, A to B; pH 7.4/7.4; 10 µM; single replicates A-C; read-out: Recovery
endpoint: recovery at 1 h, 10 µM (%)
Response body: numeric value in %, unit text excluded.

Looking up `Cc1nc2cc(C(=O)N(C)C)cc(O[C@H]3CCOc4cc(F)cc(F)c43)c2[nH]1` , I see its recovery at 1 h, 10 µM listed as 82.7

----------
test-target: CYP3A4 (Homo sapiens)
Construct: purchased Corning Life Sciences (Woburn, MA, USA)
Sequence (P08684 whole entry): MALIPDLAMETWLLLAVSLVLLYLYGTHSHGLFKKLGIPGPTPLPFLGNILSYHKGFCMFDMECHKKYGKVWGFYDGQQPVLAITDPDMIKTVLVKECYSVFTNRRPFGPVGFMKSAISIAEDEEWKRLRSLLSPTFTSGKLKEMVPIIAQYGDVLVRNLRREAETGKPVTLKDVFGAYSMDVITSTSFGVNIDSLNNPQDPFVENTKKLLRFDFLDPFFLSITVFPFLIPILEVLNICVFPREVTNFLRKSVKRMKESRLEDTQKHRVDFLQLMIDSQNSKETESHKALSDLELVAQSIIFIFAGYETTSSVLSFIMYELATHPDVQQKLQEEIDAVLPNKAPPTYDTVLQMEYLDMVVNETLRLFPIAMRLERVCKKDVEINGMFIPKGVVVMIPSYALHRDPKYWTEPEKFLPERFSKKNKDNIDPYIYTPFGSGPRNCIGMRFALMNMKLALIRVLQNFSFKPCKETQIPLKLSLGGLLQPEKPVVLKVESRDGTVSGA
test-summary: Intrinsic clearance using recombinant CYPs: CYP3A4
Type: in vitro ADME
test-conditions: human, recombinant CYP3A4, rCYP3A4
endpoint: half-life at 1 μM (min)
Response body: numeric value in min, unit text excluded.

Looking up `Cc1nc2cc(C(=O)N(C)C)cc(O[C@H]3CCOc4cc(F)cc(F)c43)c2[nH]1` , I see its half-life at 1 μM listed as 22.7

----------
test-summary: Caco-2 permeability assay
Assay type: in vitro ADME
test-conditions: human, Caco-2, pH 7.4, B to A; pH 7.4/7.4; 10 µM; read-out: Recovery, Mean
endpoint: recovery at 1 h, 10 µM (%)
Response body: numeric value in %, unit text excluded.

Looking up `Cc1nc2cc(C(=O)N(C)C)cc(O[C@H]3CCOc4cc(F)cc(F)c43)c2[nH]1` , I see its recovery at 1 h, 10 µM listed as 84.3

----------
test-target: CYP2C9 (Homo sapiens, UniProt P11712)
Construct: purchased Corning Life Sciences (Woburn, MA, USA)
Sequence (P11712 whole entry): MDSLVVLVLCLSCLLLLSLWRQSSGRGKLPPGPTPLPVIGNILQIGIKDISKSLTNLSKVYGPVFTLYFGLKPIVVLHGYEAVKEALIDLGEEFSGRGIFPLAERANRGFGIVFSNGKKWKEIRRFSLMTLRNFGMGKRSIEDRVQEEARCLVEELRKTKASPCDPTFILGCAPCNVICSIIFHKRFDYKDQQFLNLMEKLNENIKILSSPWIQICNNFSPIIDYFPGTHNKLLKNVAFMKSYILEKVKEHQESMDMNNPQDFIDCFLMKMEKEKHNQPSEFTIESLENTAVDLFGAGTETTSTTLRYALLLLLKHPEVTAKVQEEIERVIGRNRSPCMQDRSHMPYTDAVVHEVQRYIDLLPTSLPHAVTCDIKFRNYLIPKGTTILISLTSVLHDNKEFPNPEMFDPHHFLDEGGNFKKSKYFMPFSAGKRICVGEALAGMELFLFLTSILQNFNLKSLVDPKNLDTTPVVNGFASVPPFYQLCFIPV
test-summary: Intrinsic clearance using recombinant CYPs: CYP2C9
Format: in vitro ADME
test-conditions: human, recombinant CYP2C9, rCYP2C9
endpoint: half-life at 1 μM (h)
Response body: numeric value in h, unit text excluded.

Looking up Cc1nc2cc(C(=O)N(C)C)cc(O[C@H]3CCOc4cc(F)cc(F)c43)c2[nH]1 [tegoprazan] , I see its half-life at 1 μM listed as 2.27

----------
test-summary: PBPK model input parameters predicted in SimCYP or obtained by parameter estimation
test-conditions: human; initial model value; Vd of the clinical study applied; read-out: Vss
endpoint: Vd (L/kg)
Response body: numeric value in L/kg, unit text excluded.

Looking up `Cc1nc2cc(C(=O)N(C)C)cc(O[C@H]3CCOc4cc(F)cc(F)c43)c2[nH]1` , I see its Vd listed as 1.55

Data provenance is paper PMC9230797.
